System: A498 complex spheroid viability
Assay: Anticancer human tumor A498 cell line growth inhibition;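 further: spheroids exposed to agents for seven days before readout; 100% = DMSO vehicle-treated spheroids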
Details: second compound 3.16 µM; first compound 0.000949 µM; hits give low values
Text: Multicellular complex tumor spheroid response to LSD1 Inhibitor Iadademstat in combination with a variety of drugs and investigational agents in selected tumor cell lines The current study was undertaken to assess response to LSD1 inhibitors in combination with standard-of-care drugs and investigational agents in solid tumor complex spheroid models as well as in the K-562 leukemia. […] Compounds. […] If the clinical Cmax for an agent had not been determined, the highest concentration tested was 10 microM. […]
propertyLabel: viability, T/C (%)
Supply the numeric figure in %, leaving out any unit text.

Need viability, T/C of Nc1ncn(C2CC(O)C(CO)S2)c(=O)n1 (stereo unspecified) + NC1CCC(NC2CC2c2ccccc2)CC1 , thanks.
85.1

Query CCc1c2c(nc3ccc(O)cc13)-c1cc3c(c(=O)n1C2)COC(=O)[C@]3(O)CC + NC1CCC(NC2CC2c2ccccc2)CC1 next
44.5

Query Nc1ccn(C2OC(CO)C(O)C2(F)F)c(=O)n1 (stereo unspecified) + NC1CCC(NC2CC2c2ccccc2)CC1 next
23.8

Query Nc1ccn(C2OC(CO)C(O)C2(F)F)c(=O)n1 (stereo unspecified) + NC1CC1c1ccc(-c2cccc(O)c2)cc1 next
22.6

Query CCc1c2c(nc3ccc(O)cc13)-c1cc3c(c(=O)n1C2)COC(=O)[C@]3(O)CC + NC1CC1c1ccc(-c2cccc(O)c2)cc1 next
43

Query Nc1ncn(C2CC(O)C(CO)S2)c(=O)n1 (stereo unspecified) + NC1CC1c1ccc(-c2cccc(O)c2)cc1 next
114
